Origin of the recorded values: ChEMBL document CHEMBL5113392

Task for the reader: assign each of the following molecules its reported Activity.
System: Salmon testes DNA
Test: Displacement of methyl green from salmon sperm DNA at 10 uM measured after 2 hrs by fluorescence plate reader method relative to control
Format: nucleic-acid assay
Details: Salmo salar
Hi! Could you send only the number? It should be in %, unit omitted.

Input O=C1CC(N2C(=O)/C(=C/C(Cl)=C/c3ccc([N+](=O)[O-])cc3)SC2=S)C(=O)N1c1ccc(O)cc1 (centres undefined) . Output Activity: 6.2

The reported value for `COc1cccc2c1C(=O)c1c(O)c3c(c(O)c1C2=O)C[C@@](O)(C(=O)CO)C[C@@H]3O[C@H]1C[C@H](N)[C@H](O)[C@H](C)O1` in terms of Activity is 68.7

Per the records, this molecule ( `CC[n+]1c(-c2ccccc2)c2cc(N)ccc2c2ccc(N)cc21` ) has Activity equal to 84.1

Per the records, this molecule ( O=C1CC(N2C(=O)/C(=C/C(Cl)=C/c3ccc([N+](=O)[O-])cc3)SC2=S)C(=O)N1c1ccc(Cl)cc1 (centres undefined) ) has Activity equal to 7.9
